B1: PTPN9 (parent)
chain: IDFLRVVRNQQSLAVSNMGARSKG

variants of: B1; assay: protein stability index of a GFP-peptide fusion (GPS, HEK-293T) (PSI 1-6); higher = more stable; settings: c terminus: a fixed tail appended;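 also: lentivirally expressed fusions sorted by FACS into six bins by GFP to DsRed ratio, PSI derived from sequencing read proportions per bin multiplied by bin number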
A collection of variants and their measured protein stability index
Form rule: numeric answer, no unit written next to it.

These solved cases illustrate the format of a correct answer.
[[record]]
alteration = "Q11T"
measuredresult = 2.29

[[record]]
alteration = "V7M"
measuredresult = 2.03

[[record]]
alteration = "N17F"
measuredresult = 2.12


Bench note: what protein stability index did R5W show?
2

FYI, the data here is from the supplement of paper PMC10567573.
